System Under Test: Rhodopsin kinase GRK7 (Homo sapiens)
Sequence (whole entry): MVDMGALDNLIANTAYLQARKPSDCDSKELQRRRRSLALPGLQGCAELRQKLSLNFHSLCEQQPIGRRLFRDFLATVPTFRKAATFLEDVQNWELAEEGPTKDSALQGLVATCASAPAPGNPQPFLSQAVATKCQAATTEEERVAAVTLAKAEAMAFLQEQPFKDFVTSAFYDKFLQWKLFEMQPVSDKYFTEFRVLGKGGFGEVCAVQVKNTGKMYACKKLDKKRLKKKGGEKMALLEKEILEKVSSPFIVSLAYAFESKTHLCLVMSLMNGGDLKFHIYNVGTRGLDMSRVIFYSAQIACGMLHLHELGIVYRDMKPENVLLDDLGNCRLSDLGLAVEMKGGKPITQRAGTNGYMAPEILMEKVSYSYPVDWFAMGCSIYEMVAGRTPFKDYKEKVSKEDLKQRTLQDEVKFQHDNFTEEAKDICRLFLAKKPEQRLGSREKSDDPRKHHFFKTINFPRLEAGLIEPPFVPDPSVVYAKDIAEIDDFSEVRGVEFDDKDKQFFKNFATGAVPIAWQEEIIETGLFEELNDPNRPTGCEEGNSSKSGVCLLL
Settings: at 1 µM
Quantity Measured: residual activity (%)

Chemical Smiles: CCC(=O)Nc1ccc2ncnc(Nc3cccc(Br)c3)c2c1
Test Value: 96
//
Chemical Smiles: O=C(Nc1cccc(Nc2cc(Nc3cccc(C(F)(F)F)c3)ncn2)c1)C1CC1
Test Value: 102
//
Chemical Smiles: COc1cc2ncnc(Nc3ccc(O)c(Br)c3)c2cc1OC
Test Value: 75
//
Chemical Smiles: Nc1ccc2ncnc(NCCc3ccc(Oc4ccccc4)cc3)c2c1
Test Value: 110
//
Chemical Smiles: Cc1ccc(NC2=CC(=O)c3sc(C)nc3C2=O)cc1
Test Value: 84
//
Chemical Smiles: O=C1NC(=O)/C(=C/c2ccc3c(c2)OC(F)(F)O3)S1
Test Value: 107
//
Chemical Smiles: COc1cc2ncnc(Nc3ccc(NC(=O)c4ccccc4)cc3)c2cc1OC
Test Value: 110
//
Chemical Smiles: CNc1cc2c(Nc3cccc(Br)c3)ncnc2cn1
Test Value: 93
//
Chemical Smiles: O=C1Nc2cc(Br)ccc2/C1=C1/Nc2ccccc2/C1=N\O
Test Value: 94
//
Chemical Smiles: COc1ccc(OC)c2c(=S)c3ccccc3[nH]c12
Test Value: 84
//
Chemical Smiles: CCN(CC)C(=O)c1ccc(Nc2nc(OCC3CCCCC3)c3nc[nH]c3n2)cc1
Test Value: 97
//
Chemical Smiles: COc1cc2ncnc(Nc3ccc(Oc4ccccc4)cc3)c2cc1OC
Test Value: 103
//
Chemical Smiles: Nc1n[nH]c2nnc(-c3c(-c4ccccc4)nn4ccccc34)cc12
Test Value: 83
//
Chemical Smiles: CO[C@@H]1[C@H](N(C)C(=O)c2ccccc2)C[C@H]2O[C@]1(C)n1c3ccccc3c3c4c(c5c6ccccc6n2c5c31)C(=O)NC4
Test Value: 8
//
Chemical Smiles: N#Cc1cnc2cnc(NCc3cccnc3)cc2c1Nc1ccc(F)c(Cl)c1
Test Value: 120
//
Chemical Smiles: Oc1c2ccccc2c2c3c(cccc13)N=N2
Test Value: 71
//
Chemical Smiles: C[C@@H](N)[C@H]1CC[C@H](C(=O)Nc2ccncc2)CC1
Test Value: 97
//
Chemical Smiles: CO[C@H]1[C@@H](OC)C[C@H](C)[C@@H](OC)C2=CC(=O)C=C(NC(=O)/C(C)=C/C=C/[C@H](OC)[C@@H](OC(N)=O)/C(C)=C/[C@@H]1C)C2=O
Test Value: 100
//
Chemical Smiles: O=C(Nc1cccc(Nc2nccc(Nc3cccc(C(F)(F)F)c3)n2)c1)C1CC1
Test Value: 104
//
Chemical Smiles: Cc1cc(Nc2nc(-c3ccccc3)nc3ccccc23)n[nH]1
Test Value: 55
//
Chemical Smiles: CC(C)n1cnc2/c(=N/c3cccc(Cl)c3)nc(NCCO)[nH]c21
Test Value: 76
//
Chemical Smiles: Cc1cccc(-c2[nH]c(C(C)(C)C)nc2-c2ccc3c(c2)OCO3)n1
Test Value: 97
//
Chemical Smiles: CC(C)n1cnc2c(NCc3ccccc3)nc(NCCCO)nc21
Test Value: 94
//
Chemical Smiles: NC(=O)c1ccc2[nH]c(-c3ccc(Oc4ccc(Cl)cc4)cc3)nc2c1
Test Value: 89
//
Chemical Smiles: Oc1ccc(Nc2nc(-c3ccc(Cl)cc3)cs2)cc1
Test Value: 103
//
Chemical Smiles: O=C1NC(=O)c2c1c1c3ccccc3[nH]c1c1[nH]c3cc(Br)ccc3c21
Test Value: 96
//
Chemical Smiles: Nc1cccc(-c2cc3c(Oc4cccc(O)c4)ncnc3[nH]2)c1
Test Value: 92
//
Chemical Smiles: CC(=O)c1ccc(N2CCOCC2)cc1O
Test Value: 95

----------
# residual activity values compiled below
System Under Test: TGF-beta receptor type-1 (Homo sapiens) (UniProt P36897)
Sequence (P36897 whole entry): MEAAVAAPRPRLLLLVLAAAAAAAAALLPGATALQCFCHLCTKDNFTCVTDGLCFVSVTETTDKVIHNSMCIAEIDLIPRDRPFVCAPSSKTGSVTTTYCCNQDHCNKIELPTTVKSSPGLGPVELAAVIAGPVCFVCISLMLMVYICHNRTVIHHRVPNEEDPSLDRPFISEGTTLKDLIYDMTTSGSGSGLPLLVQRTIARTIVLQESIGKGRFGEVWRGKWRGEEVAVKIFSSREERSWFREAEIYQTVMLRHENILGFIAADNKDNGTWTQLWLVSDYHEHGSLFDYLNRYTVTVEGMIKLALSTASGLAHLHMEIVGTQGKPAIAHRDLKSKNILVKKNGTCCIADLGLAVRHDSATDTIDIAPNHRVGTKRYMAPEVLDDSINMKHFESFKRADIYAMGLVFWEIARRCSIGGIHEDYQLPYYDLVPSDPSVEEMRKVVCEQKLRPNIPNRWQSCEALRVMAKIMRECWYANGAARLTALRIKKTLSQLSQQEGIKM
Settings: at 1 µM
Description: Millipore: Percentage of residual kinase activity of TGFBR1 at 1uM relative to control. Control inhibitor: Phosphoric acid* at 0.3uM. Buffer: 8 mM MOPS pH 7.0, 0.2 mM EDTA, 1 mM MnCl2
Quantity Measured: residual activity (%)

Chemical Smiles: CO[C@H]1C[C@@H]2CC[C@@H](C)[C@@](O)(O2)C(=O)C(=O)N2CCCC[C@H]2C(=O)O[C@H]([C@H](C)C[C@@H]2CC[C@@H](O)[C@H](OC)C2)CC(=O)[C@H](C)/C=C(\C)[C@@H](O)[C@@H](OC)C(=O)[C@H](C)C[C@H](C)/C=C/C=C/C=C/1C
Test Value: 82
--
Chemical Smiles: CN(C)CCCn1cc(C2=C(c3c[nH]c4ccccc34)C(=O)NC2=O)c2ccccc21
Test Value: 91
--
Chemical Smiles: Cc1nc2cc3nc(-c4cccs4)cnc3cc2n1C
Test Value: 98

----------
# residual activity values compiled below
System Under Test: Interleukin-1 receptor-associated kinase 1 (Homo sapiens)
Settings: at 1 µM
Quantity Measured: residual activity

Chemical Smiles: Cc1ccc(S(=O)(=O)/C=C/C#N)cc1
System Under Test: Interleukin-1 receptor-associated kinase 1 (Homo sapiens)
Test Value: 102%
//
Chemical Smiles: Nc1n[nH]c2nnc(-c3c(-c4ccccc4)nn4ccccc34)cc12
System Under Test: Interleukin-1 receptor-associated kinase 1 (Homo sapiens)
Test Value: 95%
//
Chemical Smiles: O=Nc1c(-c2c(O)[nH]c3ccccc23)[nH]c2ccccc12
System Under Test: Interleukin-1 receptor-associated kinase 1 (Homo sapiens)
Test Value: 60%
//
Chemical Smiles: Nc1ccc2ncnc(NCCc3ccc(Oc4ccccc4)cc3)c2c1
System Under Test: Interleukin-1 receptor-associated kinase 1 (Homo sapiens)
Test Value: 100%
//
Chemical Smiles: Ic1cccc(CSc2nnc(-c3ccncc3)o2)c1
System Under Test: Interleukin-1 receptor-associated kinase 1 (Homo sapiens)
Test Value: 91%
//
Chemical Smiles: N#C/C(=C(\N)Sc1ccc(N)cc1)c1ccccc1C(F)(F)F
System Under Test: Interleukin-1 receptor-associated kinase 1 (Homo sapiens)
Test Value: 91%
//
Chemical Smiles: O=C1NC(=O)/C(=C/c2ccc3c(c2)OC(F)(F)O3)S1
System Under Test: Interleukin-1 receptor-associated kinase 1 (Homo sapiens)
Test Value: 102%
//
Chemical Smiles: Oc1ccc(-c2nc(-c3ccc(F)cc3)c(-c3ccncc3)[nH]2)cc1
System Under Test: Interleukin-1 receptor-associated kinase 1 (Homo sapiens)
Test Value: 104%
//
Chemical Smiles: N#CCCc1ccc2c(c1)-c1[nH]c3ccc([N+](=O)[O-])cc3c1CC(=O)N2
System Under Test: Interleukin-1 receptor-associated kinase 1 (Homo sapiens)
Test Value: 45%
//
Chemical Smiles: O=C1NC(=O)c2c1c1c3ccccc3[nH]c1c1[nH]c3cc(Br)ccc3c21
System Under Test: Interleukin-1 receptor-associated kinase 1 (Homo sapiens)
Test Value: 106%
//
Chemical Smiles: CC(=O)c1ccc(N2CCOCC2)cc1O
System Under Test: Interleukin-1 receptor-associated kinase 1 (Homo sapiens)
Test Value: 105%
//
Chemical Smiles: Cc1ccc(NC2=CC(=O)c3sc(C)nc3C2=O)cc1
System Under Test: Interleukin-1 receptor-associated kinase 1 (Homo sapiens)
Test Value: 105%
//
Chemical Smiles: Cc1cc(Nc2nc(-c3ccccc3)nc3ccccc23)n[nH]1
System Under Test: Interleukin-1 receptor-associated kinase 1 (Homo sapiens)
Test Value: 69%
//
Chemical Smiles: COc1cc2ncnc(Nc3ccc(Oc4ccccc4)cc3)c2cc1OC
System Under Test: Interleukin-1 receptor-associated kinase 1 (Homo sapiens)
Test Value: 87%
//
Chemical Smiles: CN(C)CCCn1cc(C2=C(c3c[nH]c4ccccc34)C(=O)NC2=O)c2ccccc21
System Under Test: Interleukin-1 receptor-associated kinase 1 (Homo sapiens)
Test Value: 111%
//
Chemical Smiles: Cn1nc2c3c(cccc31)C(=O)c1ccccc1-2
System Under Test: Interleukin-1 receptor-associated kinase 1 (Homo sapiens)
Test Value: 90%
//
Chemical Smiles: Oc1ccc(Nc2nc(-c3ccc(Cl)cc3)cs2)cc1
System Under Test: Interleukin-1 receptor-associated kinase 1 (Homo sapiens)
Test Value: 100%
//
Chemical Smiles: CC(C)n1cnc2/c(=N/c3cccc(Cl)c3)nc(NCCO)[nH]c21
System Under Test: Interleukin-1 receptor-associated kinase 1 (Homo sapiens)
Test Value: 76%
//
Chemical Smiles: CC[n+]1c(/C=C/N(C)c2ccccc2)n(-c2ccccc2)c2ccc(-c3nc4ccccc4s3)cc21
System Under Test: Interleukin-1 receptor-associated kinase 1 (Homo sapiens)
Test Value: 96%
//
Chemical Smiles: COc1ccc(CNc2nc(N(CCO)CCO)nc3c2ncn3C(C)C)cc1
System Under Test: Interleukin-1 receptor-associated kinase 1 (Homo sapiens)
Test Value: 91%
//
Chemical Smiles: CC#CC(=O)Nc1cc2c(Nc3ccc(F)c(Cl)c3)ncnc2cn1
System Under Test: Interleukin-1 receptor-associated kinase 1 (Homo sapiens)
Test Value: 94%
//
Chemical Smiles: Nc1nc(Nc2ccc(S(N)(=O)=O)cc2)nn1C(=S)Nc1c(F)cccc1F
System Under Test: Interleukin-1 receptor-associated kinase 1 (Homo sapiens)
Test Value: 8%
//
Chemical Smiles: O=C1Nc2cc(Br)ccc2/C1=C1/Nc2ccccc2/C1=N\O
System Under Test: Interleukin-1 receptor-associated kinase 1 (Homo sapiens)
Test Value: 93%
//
Chemical Smiles: NC(=O)c1ccc2[nH]c(-c3ccc(Oc4ccc(Cl)cc4)cc3)nc2c1
System Under Test: Interleukin-1 receptor-associated kinase 1 (Homo sapiens)
Test Value: 95%
//
Chemical Smiles: O=C(Nc1cccc(Nc2nccc(Nc3cccc(C(F)(F)F)c3)n2)c1)C1CC1
System Under Test: Interleukin-1 receptor-associated kinase 1 (Homo sapiens)
Test Value: 81%
//
Chemical Smiles: CCOc1cc2ncnc(Nc3cccc(Br)c3)c2cc1OCC
System Under Test: Interleukin-1 receptor-associated kinase 1 (Homo sapiens)
Test Value: 79%
//
Chemical Smiles: O=C1NC(=O)c2cc(Nc3ccc(F)cc3)c(Nc3ccc(F)cc3)cc21
System Under Test: Interleukin-1 receptor-associated kinase 1 (Homo sapiens)
Test Value: 83%
//
Chemical Smiles: O=c1cc(-c2cccc3c2Sc2ccccc2S3)oc(N2CCOCC2)c1
System Under Test: Interleukin-1 receptor-associated kinase 1 (Homo sapiens)
Test Value: 102%
//
Chemical Smiles: CCN(CC)CCCCN1c2ccccc2Oc2ccc(Cl)cc21
System Under Test: Interleukin-1 receptor-associated kinase 1 (Homo sapiens)
Test Value: 111%
//
Chemical Smiles: CO[C@@H]1[C@H](N(C)C(=O)c2ccccc2)C[C@H]2O[C@]1(C)n1c3ccccc3c3c4c(c5c6ccccc6n2c5c31)C(=O)NC4
System Under Test: Interleukin-1 receptor-associated kinase 1 (Homo sapiens)
Test Value: 85%
//
Chemical Smiles: COc1cc2ncnc(N3CCN(C(=O)Nc4ccc(Oc5ccccc5)cc4)CC3)c2cc1OC
System Under Test: Interleukin-1 receptor-associated kinase 1 (Homo sapiens)
Test Value: 76%
//
Chemical Smiles: CN(C)c1ccc(/C=C2\C(=O)Nc3ccccc32)cc1
System Under Test: Interleukin-1 receptor-associated kinase 1 (Homo sapiens)
Test Value: 118%
//
Chemical Smiles: Cc1cccc(-c2[nH]c(C(C)(C)C)nc2-c2ccc3c(c2)OCO3)n1
System Under Test: Interleukin-1 receptor-associated kinase 1 (Homo sapiens)
Test Value: 87%
//
Chemical Smiles: COc1ccc(C(=O)Nc2sc3c(c2C(N)=O)CCCC3)cc1OC
System Under Test: Interleukin-1 receptor-associated kinase 1 (Homo sapiens)
Test Value: 92%
//
Chemical Smiles: COc1ccc(OC)c2c(=S)c3ccccc3[nH]c12
System Under Test: Interleukin-1 receptor-associated kinase 1 (Homo sapiens)
Test Value: 101%
//
Chemical Smiles: O=C1c2ccccc2-[n+]2ccc3c([nH]c4ccccc43)c21
System Under Test: Interleukin-1 receptor-associated kinase 1 (Homo sapiens)
Test Value: 106%
//
Chemical Smiles: COc1ccc(S(=O)(=O)N(CCO)c2ccccc2CN(C)C/C=C/c2ccc(Cl)cc2)cc1
System Under Test: Interleukin-1 receptor-associated kinase 1 (Homo sapiens)
Test Value: 99%
//
Chemical Smiles: O=c1c2ccccc2[nH]c(=S)n1CCN1CCC(=C(c2ccc(F)cc2)c2ccc(F)cc2)CC1
System Under Test: Interleukin-1 receptor-associated kinase 1 (Homo sapiens)
Test Value: 83%
//
Chemical Smiles: COc1cc2ncnc(Nc3ccc(O)c(Br)c3)c2cc1OC
System Under Test: Interleukin-1 receptor-associated kinase 1 (Homo sapiens)
Test Value: 40%
//
Chemical Smiles: Oc1c2ccccc2c2c3c(cccc13)N=N2
System Under Test: Interleukin-1 receptor-associated kinase 1 (Homo sapiens)
Test Value: 69%
//
Chemical Smiles: Cn1cc(/C=C2\C(=O)Nc3ccc(S(N)(=O)=O)cc32)c2ccccc21
System Under Test: Interleukin-1 receptor-associated kinase 1 (Homo sapiens)
Test Value: 1%
//
Chemical Smiles: Cc1cc2ncc(-c3ccccc3)nc2cc1C
System Under Test: Interleukin-1 receptor-associated kinase 1 (Homo sapiens)
Test Value: 99%
//
Chemical Smiles: Oc1n[nH]c2nnc(-c3c(-c4ccccc4)nn4ccccc34)cc12
System Under Test: Interleukin-1 receptor-associated kinase 1 (Homo sapiens)
Test Value: 99%

These data points were gathered from ChEMBL document CHEMBL2218924.
